# Measurement description: qHTS assay to identify small molecule antagonists of the estrogen related receptor (ERR) signaling pathway from Tox21 library - cell viability counter screen (AID 1224834); further: on the % scale 0 is the no-effect control and ±100 the full control effect; nearly all actives have a fitted effect of over 30% in size
# Condition summary: ERR reporter cells viability, CellTiter-Fluor, 17.5 h; series mostly up to 92.4 µM
Records with an inconclusive call do not appear. Activity calls are given as the source filed them. The call rests on the fitted dose curve; in most records, active means well fitted cell-killing curve with a large enough effect in the repeat runs; inconclusive means weak or mixed curves; inactive means flat fitted curve, though single readings scatter.
Endpoint: viability change, negative = cytotoxic

The examples below pair each entry with its known result.
| Compound | viability change, negative = cytotoxic |
| --- | --- |
| CCCCCCCCc1ccc(S(=O)(=O)O)cc1 | inactive |
| Cc1onc(-c2ccccc2)c1C(=O)Cl | inactive |
| COc1cc(C)ccc1C(C)C | inactive |
| CCN1CC(CCN2CCOCC2)C(c2ccccc2)(c2ccccc2)C1=O (stereo not given) | inactive |
| CC1=C(O)C(=O)OC1C (stereo not given) | inactive |
| O=C(O)[C@@H](O)[C@H](O)[C@H](O)[C@@H](O)C(=O)O | inactive |
| CC(C)C(=O)OCC(C)(C)C(O)C(C)C (stereo not given) | inactive |
| CN1CCC[C@@H]1Cc1c[nH]c2ccc(CCS(=O)(=O)c3ccccc3)cc12 | inactive |
| OCC(CBr)(CBr)CBr | inactive |
| Oc1ccccc1F | inactive |

Asked: # query: viability change, negative = cytotoxic of entry CC(C)(CO)[C@@H](O)C(=O)NCCC(=O)O
Given back: inactive

Asked: # query: viability change, negative = cytotoxic of entry Cc1cn([C@@H]2O[C@H](CO)[C@@H](O)[C@@H]2F)c(=O)[nH]c1=O
Given back: inactive

Asked: # query: viability change, negative = cytotoxic of entry ICCc1ccccc1
Given back: inactive

Asked: # query: viability change, negative = cytotoxic of entry O=C1CCC(C2CCCCC2)CC1
Given back: inactive

Asked: # query: viability change, negative = cytotoxic of entry N#CSCC(=O)O
Given back: inactive

Asked: # query: viability change, negative = cytotoxic of entry CCC(=O)Nc1ccc(O)cc1
Given back: inactive

Asked: # query: viability change, negative = cytotoxic of entry C[C@@H](N)C(=O)O
Given back: inactive

Asked: # query: viability change, negative = cytotoxic of entry C[C@@H]1CN(c2c(F)c(F)c3c(=O)c(C(=O)O)cn(C4CC4)c3c2F)C[C@H](C)N1
Given back: 2.27% [at 19 µM] (inactive)

Asked: # query: viability change, negative = cytotoxic of entry CCOC(=O)CS
Given back: inactive

====

# Target system: Estrogen receptor (Homo sapiens)
# Measurement description: qHTS assay to identify small molecule agonists of the estrogen receptor alpha (ER-alpha) signaling pathway in the presence of an antagonist (AID 1259383); further: top concentration of the series differs between compounds; on the % scale 0 is the no-effect control and ±100 the full control effect; nearly all actives have a fitted effect of over 15% in size
# Condition summary: VM7Luc4E2 cells, ERE-luciferase, +ICI-182,780, 22 h; series mostly up to 92.4 µM
Active and inactive are the calls of the source. Calls follow the shape of the full dose curve.
Endpoint: activation

The examples below pair each entry with its known result.
| Substance smiles | activation |
| --- | --- |
| CC(C)S | inactive |
| CC(C)OC(C)C | inactive |
| CCc1cc2cc(OC)c(OC)cc2c(Cc2ccccc2)n1 | inactive |
| C[C@@H]1CN(c2c(F)c(N)c3c(=O)c(C(=O)O)cn(C4CC4)c3c2F)C[C@H](C)N1 | 0.0574% [at 19 µM] (inactive) |
| C=CCCC=C | inactive |

Asked: # query: activation of entry CN(C)C(=O)NC1(c2ccccc2)CCN(CCC[C@]2(c3ccc(Cl)c(Cl)c3)CCCN(C(=O)c3ccccc3)C2)CC1
Given back: -0.618% [at 19 µM] (inactive)

Asked: # query: activation of entry CCOc1ccc2nc(N)sc2c1
Given back: inactive
